# system: VEGF-R1 (Homo sapiens (Human), UniProt P17948)
# Sequence (P17948 27-1338, species assumed): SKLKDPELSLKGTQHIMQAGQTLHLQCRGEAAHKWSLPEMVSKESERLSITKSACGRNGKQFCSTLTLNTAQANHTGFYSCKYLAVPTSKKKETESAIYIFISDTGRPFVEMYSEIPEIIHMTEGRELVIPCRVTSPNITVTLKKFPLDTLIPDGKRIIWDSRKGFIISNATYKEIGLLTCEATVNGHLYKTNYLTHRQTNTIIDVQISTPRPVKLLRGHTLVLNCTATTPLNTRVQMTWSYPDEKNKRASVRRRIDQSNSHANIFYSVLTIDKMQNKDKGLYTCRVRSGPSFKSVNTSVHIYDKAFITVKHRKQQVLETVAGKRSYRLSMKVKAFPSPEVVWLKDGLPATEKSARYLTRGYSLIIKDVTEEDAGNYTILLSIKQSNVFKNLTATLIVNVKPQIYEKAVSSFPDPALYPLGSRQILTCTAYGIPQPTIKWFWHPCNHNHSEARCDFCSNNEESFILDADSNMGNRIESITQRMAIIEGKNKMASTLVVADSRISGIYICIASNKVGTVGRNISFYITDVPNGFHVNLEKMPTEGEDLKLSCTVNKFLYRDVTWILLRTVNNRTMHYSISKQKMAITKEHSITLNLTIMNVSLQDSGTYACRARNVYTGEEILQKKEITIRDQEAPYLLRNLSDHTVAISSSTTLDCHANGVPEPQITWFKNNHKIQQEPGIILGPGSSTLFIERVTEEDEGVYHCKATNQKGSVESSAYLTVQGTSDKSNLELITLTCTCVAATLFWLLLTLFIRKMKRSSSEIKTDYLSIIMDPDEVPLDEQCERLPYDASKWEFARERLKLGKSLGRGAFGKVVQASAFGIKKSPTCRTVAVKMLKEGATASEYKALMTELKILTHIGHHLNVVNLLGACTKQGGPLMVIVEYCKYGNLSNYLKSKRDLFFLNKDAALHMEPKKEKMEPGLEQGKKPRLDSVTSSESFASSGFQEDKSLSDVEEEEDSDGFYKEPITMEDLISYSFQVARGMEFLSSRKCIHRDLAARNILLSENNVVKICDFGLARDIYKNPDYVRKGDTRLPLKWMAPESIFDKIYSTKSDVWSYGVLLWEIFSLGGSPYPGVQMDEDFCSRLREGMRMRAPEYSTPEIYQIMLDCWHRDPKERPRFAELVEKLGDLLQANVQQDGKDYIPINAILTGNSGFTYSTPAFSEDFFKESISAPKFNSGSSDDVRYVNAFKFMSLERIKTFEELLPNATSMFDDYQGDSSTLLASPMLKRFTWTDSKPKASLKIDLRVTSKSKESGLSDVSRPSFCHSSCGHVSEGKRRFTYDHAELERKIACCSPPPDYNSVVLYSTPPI
endpoint: IC50 (µM)
Express your answer in µM, writing the number without its unit.

Query: IC50; subject: `Cc1cccc(-c2[nH]c(CNc3ccccc3F)nc2-c2ccc3ncnn3c2)n1`
0.391

----------
# system: ALK5 (Homo sapiens (Human), UniProt P36897)
# Sequence (P36897 34-503): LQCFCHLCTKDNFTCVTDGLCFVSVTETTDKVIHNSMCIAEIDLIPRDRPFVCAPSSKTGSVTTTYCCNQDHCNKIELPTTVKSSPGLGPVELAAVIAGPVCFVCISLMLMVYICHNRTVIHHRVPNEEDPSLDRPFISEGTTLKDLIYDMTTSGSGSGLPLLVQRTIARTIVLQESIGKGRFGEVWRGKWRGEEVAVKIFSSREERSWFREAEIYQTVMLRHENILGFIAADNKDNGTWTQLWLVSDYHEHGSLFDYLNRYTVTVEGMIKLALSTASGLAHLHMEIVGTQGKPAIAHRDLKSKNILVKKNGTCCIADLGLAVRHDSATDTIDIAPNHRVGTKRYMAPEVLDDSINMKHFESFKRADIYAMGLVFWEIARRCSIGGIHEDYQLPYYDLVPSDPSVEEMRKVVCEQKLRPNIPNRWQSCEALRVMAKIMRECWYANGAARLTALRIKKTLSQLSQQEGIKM
# experimental protocol: Cell-free assay for inhibition of ALK5 kinase phosphorylation
# Assay type: biochemical
# measurement setup: read-out: IC50 on ALK5 kinase phosphorylation
Items are presented alongside their recorded IC50.
Remember to put the unit after the number in your answer.

Solved entries:
INSERT INTO measurements (compound_smiles, val) VALUES
  ('Cc1cccc(-c2[nH]c(CNc3cccc(CC#N)c3)nc2-c2ccc3ncnn3c2)n1', '11 nM'),
  ('Cc1cccc(-c2[nH]c(CNc3ccc(Cl)c(Cl)c3)nc2-c2ccc3ncnn3c2)n1', '7.54 nM'),
  ('Cc1cccc(-c2[nH]c(CNc3cccc(C(C)C)c3)nc2-c2ccc3ncnn3c2)n1', '16.2 nM'),
  ('Cc1cccc(NCc2nc(-c3ccc4ncnn4c3)c(-c3cccc(C)n3)[nH]2)c1', '9.07 nM'),
  ('Cc1cccc(-c2[nH]c(CNc3cccc(OC(F)(F)F)c3)nc2-c2ccc3ncnn3c2)n1', '23.4 nM');

Query: IC50; subject: `Cc1cccc(-c2[nH]c(CNc3cc(Cl)cc(Cl)c3)nc2-c2ccc3ncnn3c2)n1`
14.6 nM

What do you get for `Cc1cccc(-c2[nH]c(CNc3ccc(C(N)=O)cc3)nc2-c2ccc3ncnn3c2)n1` ?
54.6 nM

What do you get for `Cc1cccc(-c2[nH]c(CNc3ccc(F)c(F)c3)nc2-c2ccc3ncnn3c2)n1` ?
9.84 nM

What do you get for `COc1ccc(NCc2nc(-c3ccc4ncnn4c3)c(-c3cccc(C)n3)[nH]2)cc1OC` ?
44.2 nM

What do you get for `Cc1cccc(-c2[nH]c(CNc3cccc(C(N)=O)c3)nc2-c2ccc3ncnn3c2)n1` ?
9.14 nM

What do you get for `Cc1cccc(-c2[nH]c(COc3cccc(C(N)=O)c3)nc2-c2ccc3ncnn3c2)n1` ?
22.5 nM

Cited source: patent USRE47141E1
